Numbers sourced from patent US20240325555A1.

# system_name: T1, human LIV-1 (human, UniProt Q13433 29-755)
# T1 construct: whole, on cells; also called H-LIV1
# T1 sequence (looked up): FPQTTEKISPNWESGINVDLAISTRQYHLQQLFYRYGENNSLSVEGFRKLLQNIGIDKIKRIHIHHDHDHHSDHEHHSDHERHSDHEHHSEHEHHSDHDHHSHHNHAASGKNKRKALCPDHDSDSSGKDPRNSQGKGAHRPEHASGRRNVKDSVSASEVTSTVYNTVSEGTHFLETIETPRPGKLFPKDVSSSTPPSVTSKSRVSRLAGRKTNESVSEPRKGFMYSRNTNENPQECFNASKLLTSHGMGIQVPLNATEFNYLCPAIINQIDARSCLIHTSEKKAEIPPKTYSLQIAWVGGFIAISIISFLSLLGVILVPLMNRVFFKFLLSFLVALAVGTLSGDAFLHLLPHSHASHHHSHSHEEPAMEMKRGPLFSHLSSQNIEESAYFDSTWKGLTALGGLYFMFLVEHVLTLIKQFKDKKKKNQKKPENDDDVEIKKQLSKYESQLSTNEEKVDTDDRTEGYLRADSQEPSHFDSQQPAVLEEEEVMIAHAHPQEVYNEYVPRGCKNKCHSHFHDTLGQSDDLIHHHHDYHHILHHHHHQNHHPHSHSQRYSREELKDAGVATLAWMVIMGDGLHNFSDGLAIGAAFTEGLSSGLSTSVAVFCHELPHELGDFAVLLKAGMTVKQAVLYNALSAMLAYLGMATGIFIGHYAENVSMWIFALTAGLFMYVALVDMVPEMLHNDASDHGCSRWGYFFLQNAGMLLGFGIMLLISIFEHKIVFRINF
# experiment_summary: FACS, HEK293/H_LIV-1 cells
property_measured: Top (MFI)
Express your answer in MFI, writing the number without its unit.

Reference set, count: 2
124H4D11.p2.z1 (antibody, V domains shown) VH: QVQLVQSGAEVVKPGASVKVSCKASGFNIKDYYMHWVRQAPGQGLEWIGWIDPENDDTEYDPKFQGRVTMTADTSTSTVYMELSSLRSEDTAVYYCAARYYAFDYWGQGTMVTVSS VL: DVQMTQSPSSLSASVGDRVTITCRSSQSIVHSNANTYLEWYLQKPGKSPKLLIYKVSNRFSGVPDRFSGSGSGTDFTLTISSLQPEDFATYYCFQGSQVPPTFGQGTRLEIK; 16800
124H4D11.p2.z5 (antibody, V domains shown) VH: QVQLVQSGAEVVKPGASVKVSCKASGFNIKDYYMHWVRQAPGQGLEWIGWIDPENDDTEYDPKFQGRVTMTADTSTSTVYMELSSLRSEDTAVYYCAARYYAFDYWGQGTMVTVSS VL: DVLMTQSPLSLPVTLGQPASISCRSSQSIVHSNANTYLEWYLQRPGQSPKLLIYKVSNRFSGVPDRFSGSGSGTEFTLKISRVEAEDLGVYYCFQGSQVPPTFGGGTKLEIK; 15600

Shift focus to the following entry.
// field: Top (MFI); key: 124H4D11.p2.z14 (antibody, V domains shown) VH: QVPLVQSGAEVVKPGASVKLSCKASGFNIKDYYMHWVKQAPGQGLEWIGWIDPENDDTEYDPKFQGRATMTADTSTSTAYLELSSLRSEDTAVYYCNARYYAFDYWGQGTTVTVSS VL: DVLMTQSPLSLPVTLGQPASISCRSSQSIVHSNANTYLEWYLQRPGQSPRLLIYKVSNRFSGVPDRFSGSGSGTDFTLKISRVEAEDVGVYYCFQGSQVPPTFGQGTKLEIK ; value = 16800
